# credit: ChEMBL document CHEMBL4689842

Reported Population Mitochondria Different-Phenotype (%) values for the following molecules.
System: HEK-293T
testSummary: Multiplex assay against HEK293T
Format: toxicity, cell-based
testConditions: human, 24 h, 10 µM, compound concentration 10 uM, replicate 1

Check out these entries, answers already filled in.
[
  {
    "molecule": "OC1(c2ccc(Cl)cc2)CCN(Cc2c[nH]c3ccccc23)CC1",
    "reading": "100%"
  },
  {
    "molecule": "Cc1csc2c(N[C@@H](C)CN3CCN(S(=O)(=O)c4ccc(Cl)c(Cl)c4)CC3)ncnc12",
    "reading": "90%"
  },
  {
    "molecule": "O=C1NCN(c2ccccc2)C12CCN(CCCOc1ccc(F)cc1)CC2 [SPIRAMIDE]",
    "reading": "97%"
  },
  {
    "molecule": "CC(C)(O)CNc1ncc(-c2ccnc(Nc3ccnc(Cl)c3)n2)c(CC2CC2)n1",
    "reading": "100%"
  },
  {
    "molecule": "COc1ncc(-c2ccc3nccc(-c4ccnnc4)c3c2)cc1NS(=O)(=O)c1ccc(F)cc1F",
    "reading": "91%"
  },
  {
    "molecule": "C=CC(=O)Nc1ccc2ncnc(Nc3ccc(OCc4cccc(F)c4)c(Cl)c3)c2c1.Cc1ccc(S(=O)(=O)O)cc1",
    "reading": "78%"
  },
  {
    "molecule": "CNc1nc(NCc2ccc(NS(C)(=O)=O)cc2Cl)cc(-c2ccccn2)n1",
    "reading": "95%"
  },
  {
    "molecule": "Cn1cc(-c2[nH]c3cc(NC(=O)[C@H](N)C4CCCCC4)cc4c3c2C=NNC4=O)cn1",
    "reading": "97%"
  }
]

## Task Look up Population Mitochondria Different-Phenotype (%) for this molecule: `Cc1cc(C)cc(-c2cnc3cc(Cl)c(-c4cccc(O)c4)cc3c2OCCCN)c1`
## Result 66%
